tested on: JAK signaling; test: JAK selectivity assay, HEK blue IL-12 reporter; format: cell-based; conditions: 12.5 ng/ml IL-12, 24 h
pIC50: −log10 of the molar value.
recordedMetric: pIC50

[[record]]
molecule = "N#CC[C@H](C1CCCC1)n1cc(-c2ncnc3[nH]ccc23)cn1 [Ruxolitinib, ruxolitinib, reference compound]"
experimentalvalue = 7.51


###

log10(IC50) values, listed per item
system: TGF-β1-mediated αSMA expression; assay: Fibroblast to myofibroblast transformation (FMT) assay; conditions: Homo sapiens, Fibroblast, read-out: IC50 αSMA, donor IPF03
recordedMetric: log10(IC50) (log10 of the value in nM)

[[record]]
molecule = "Cc1nn(CC(F)(F)F)cc1Nc1cc(Nc2cnnc3c(C)cccc23)ccn1 [Compound 01]"
experimentalvalue = 2.00

[[record]]
molecule = "Clc1cccc2c(Nc3ccnc(Nc4cccc(N5CCOCC5)c4)c3)cnnc12 [Compound 04]"
experimentalvalue = 1.60

[[record]]
molecule = "COC(=O)c1ccc2c(c1)NC(=O)/C2=C(\\Nc1ccc(N(C)C(=O)CN2CCN(C)CC2)cc1)c1ccccc1 [Nintedanib, nintedanib, reference compound]"
experimentalvalue = 2.78

[[record]]
molecule = "Cc1cccc2c(Nc3ccnc(Nc4ccc(N5CCOCC5)cc4)c3)cnnc12 [Compound 05]"
experimentalvalue = 1.78

[[record]]
molecule = "Cc1cccc(-c2[nH]c(CNc3ccccc3F)nc2-c2ccc3ncnn3c2)n1 [Vactosertib, vactosertib, reference compound]"
experimentalvalue = 1.70


###

IC50 values, listed per item
tested on: TGF-β1-mediated αSMA expression; test: Fibroblast to myofibroblast transformation (FMT) assay; conditions: Homo sapiens, Fibroblast, read-out: pIC50 αSMA, donor IPF08 (converted)
recordedMetric: IC50 (nM)

[[record]]
compound = "Cc1nn(CC(F)(F)F)cc1Nc1cc(Nc2cnnc3c(C)cccc23)ccn1"
readoutunits = "nM"
experimentalvalue = 50.1

[[record]]
compound = "Cc1cccc2c(Nc3ccnc(Nc4ccc(N5CCOCC5)cc4)c3)cnnc12"
readoutunits = "nM"
experimentalvalue = 39.8

[[record]]
compound = "Cc1cccc(-c2[nH]c(CNc3ccccc3F)nc2-c2ccc3ncnn3c2)n1 [Vactosertib, vactosertib, reference compound]"
readoutunits = "nM"
experimentalvalue = 25.1

[[record]]
compound = "COC(=O)c1ccc2c(c1)NC(=O)/C2=C(\\Nc1ccc(N(C)C(=O)CN2CCN(C)CC2)cc1)c1ccccc1 [Nintedanib, nintedanib, reference compound]"
readoutunits = "nM"
experimentalvalue = 398

[[record]]
compound = "Clc1cccc2c(Nc3ccnc(Nc4cccc(N5CCOCC5)c4)c3)cnnc12"
readoutunits = "nM"
experimentalvalue = 31.6


###

Max PIN (%) values, listed per item
test system: TGF-β1-mediated αSMA expression; experiment: Fibroblast to myofibroblast transformation (FMT) assay; details: donor IPF08
recordedMetric: Max PIN (%)

[[record]]
molecule = "Cc1nn(CC(F)(F)F)cc1Nc1cc(Nc2cnnc3c(C)cccc23)ccn1"
experimentalvalue = 101

[[record]]
molecule = "Clc1cccc2c(Nc3ccnc(Nc4cccc(N5CCOCC5)c4)c3)cnnc12"
experimentalvalue = 100

[[record]]
molecule = "Cc1cccc2c(Nc3ccnc(Nc4ccc(N5CCOCC5)cc4)c3)cnnc12"
experimentalvalue = 101

[[record]]
molecule = "Cc1cccc(-c2[nH]c(CNc3ccccc3F)nc2-c2ccc3ncnn3c2)n1 [Vactosertib, vactosertib, reference compound]"
experimentalvalue = 102

[[record]]
molecule = "COC(=O)c1ccc2c(c1)NC(=O)/C2=C(\\Nc1ccc(N(C)C(=O)CN2CCN(C)CC2)cc1)c1ccccc1 [Nintedanib, nintedanib, reference compound]"
experimentalvalue = 94

